FYI, the data here is from PubChem BioAssay AID463173.

- Test system: DeltatarO mutant
- protocol_description: S. aureus survival, RN4220 and DeltatarO strains – OD600, teichoic acid synthesis inhibitors, primary screen (AID 463173)
- condition: S. aureus RN4220 wild type/DeltatarO growth, OD600, 18 h, active compounds read low, screened at 18.75 µg/mL (by protocol)
The campaign covered roughly 52,000 compounds. About 4,300 (8.3%) were called active. The sample holds actives, similar compounds and a random draw of the others, so the mix is not that of the screen.
Checkbox rule: survival lower than 80% = y; survival not lower than 80% = n.

Look over these answered cases.
COc1ccc(NC(=O)c2sc3nc(C)c(C(=O)Nc4ccc(C)cc4C)c(-c4ccc(C)o4)c3c2N)cc1
y
CN1CCc2c(sc(NC(=O)CSc3ccccc3)c2-c2nc3ccccc3s2)C1
y
CC(C)C(=O)Nc1cccc(-c2nc3ccccc3o2)c1
n
O=C(CNCc1ccco1)Nc1cccc(OC(F)(F)F)c1
n
CC(Oc1ccccc1F)C(=O)Nc1ccc(-c2nc3ccccc3s2)cc1 (stereo unspecified)
n
CCCc1noc2c1C1=NNC(=O)C1C(C)(C)C2 (stereo unspecified)
y

Problem: Quick check: does `COCCn1c(=N)c(C(=O)NCc2ccco2)cc2c(=O)n3cc(C)ccc3nc21` have survival under 80%?
Result: y

Problem: Quick check: does CCCCN(C)C(=O)C1CCCN(c2ncnc3onc(-c4ccc(F)cc4)c23)C1 (stereo unspecified) have survival under 80%?
Result: y

Problem: Quick check: does `CCN1CCc2c(sc(NC(=O)CSc3ccccc3)c2-c2nc3ccccc3s2)C1` have survival under 80%?
Result: y

Problem: Quick check: does COc1ccc(NC(=O)N2CCN3CCCCC3C2)cc1OC (stereo unspecified) have survival under 80%?
Result: n

Problem: Quick check: does Cc1cc(OC(C)C(=O)Nc2cccc(-c3nc4ccccc4o3)c2)cc(C)c1Cl (stereo unspecified) have survival under 80%?
Result: y

Problem: Quick check: does COc1ccccc1OC(C)C(=O)Nc1cccc(-c2nc3ccccc3s2)c1 (stereo unspecified) have survival under 80%?
Result: y

Problem: Quick check: does `Cc1ccc(C(=O)Nc2cccc(-c3nc4ccccc4o3)c2)c(Cl)c1` have survival under 80%?
Result: y
